- Tested on: MFE-319 (Endometrial Carcinoma);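 note: after 72 h of two-drug dosing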
- Test name: Bliss excess, mean over the matrix (fraction); higher = more synergy
Readout type: Bliss excess
API doc: respond with a numeric literal and nothing else, no unit.

{"columns": ["Compound", "Bliss excess"],
 "data": [
  ["COc1cccc(OCCCN)c1-c1cc(Nc2cnc(C#N)cn2)n[nH]1 [Prexasertib] + O=C(c1cc(Cc2n[nH]c(=O)c3ccccc23)ccc1F)N1CCN(C(=O)C2CC2)CC1 [Olaparib] (first compound max 1 µM, 7x7, partner max 10 µM)", -0.0891],
  ["CCc1c2c(nc3ccc(O)cc13)-c1cc3c(c(=O)n1C2)COC(=O)[C@]3(O)CC [SN-38] + O=C(c1cc(Cc2n[nH]c(=O)c3ccccc23)ccc1F)N1CCN(C(=O)C2CC2)CC1 [Olaparib] (first compound max 0.3 µM, 7x7, partner max 10 µM)", 0.0328],
  ["NC1(C(=O)N[C@@H](CCO)c2ccc(Cl)cc2)CCN(c2ncnc3[nH]ccc23)CC1 [Capivasertib] + CCN(CCO)CCCOc1ccc2c(Nc3cc(CC(=O)Nc4cccc(F)c4)[nH]n3)ncnc2c1 [AZD2811] (first compound max 10 µM, 7x7, partner max 1 µM)", -0.107],
  ["Cn1cnc2c(F)c(Nc3ccc(Br)cc3Cl)c(C(=O)NOCCO)cc21 [Selumetinib] + CC(C)n1c(=O)n(C)c2cnc3cc(F)c(-c4ccc(OCCCN5CCCCC5)nc4)cc3c21 [AZD1390] (first compound max 10 µM, 7x7, partner max 0.3 µM)", -0.112],
  ["CC(=O)c1c(C)c2cnc(Nc3ccc(N4CCNCC4)cn3)nc2n(C2CCCC2)c1=O [Palbociclib] + CN(CC[C@H](CSC1=CC=CC=C1)NC2=C(C=C(C=C2)S(=O)(=O)NC(=O)C3=CC=C(C=C3)N4CCC(CC4)[C@H](C5=CC=CC=C5C6=CC=C(C=C6)Cl)O)S(=O)(=O)C(F)(F)F)CCO [AZD4320] (first compound max 10 µM, 7x7, partner max 1 µM)", -0.0554]
]}

The measured Bliss excess that Cc1cc2ncnn2cc1Nc1ncc2c(n1)n(C1CCOCC1)c(=O)n2C [AZD7648] + C=CCn1c(=O)c2cnc(Nc3ccc(N4CCN(C)CC4)cc3)nc2n1-c1cccc(C(C)(C)O)n1 [AZD1775] (first compound max 10 µM, partner max 1 µM) showed for MFE-319 (Endometrial Carcinoma) is -0.0055
